Origin of measurements: patent US20230027361A1

Target: PRMT5-MEP50 (Homo sapiens)
Sequence (O14744 whole entry): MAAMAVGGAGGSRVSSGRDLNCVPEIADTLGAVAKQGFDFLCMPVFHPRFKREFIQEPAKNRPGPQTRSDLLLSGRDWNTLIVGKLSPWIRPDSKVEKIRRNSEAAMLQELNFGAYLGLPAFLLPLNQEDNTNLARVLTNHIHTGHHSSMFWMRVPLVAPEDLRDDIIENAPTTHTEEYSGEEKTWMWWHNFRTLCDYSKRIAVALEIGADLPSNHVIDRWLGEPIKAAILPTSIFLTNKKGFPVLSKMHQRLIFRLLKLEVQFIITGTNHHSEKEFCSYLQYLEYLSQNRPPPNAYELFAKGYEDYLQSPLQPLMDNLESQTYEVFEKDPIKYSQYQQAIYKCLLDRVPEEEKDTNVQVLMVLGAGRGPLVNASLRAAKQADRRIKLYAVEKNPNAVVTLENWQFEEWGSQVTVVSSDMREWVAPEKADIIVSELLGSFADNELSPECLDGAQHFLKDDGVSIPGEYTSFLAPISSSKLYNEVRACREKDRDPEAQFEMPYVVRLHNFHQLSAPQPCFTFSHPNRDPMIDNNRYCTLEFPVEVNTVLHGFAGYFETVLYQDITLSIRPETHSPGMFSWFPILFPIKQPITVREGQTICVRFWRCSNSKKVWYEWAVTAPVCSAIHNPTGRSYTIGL
Sequence (Q9BQA1 whole entry partner): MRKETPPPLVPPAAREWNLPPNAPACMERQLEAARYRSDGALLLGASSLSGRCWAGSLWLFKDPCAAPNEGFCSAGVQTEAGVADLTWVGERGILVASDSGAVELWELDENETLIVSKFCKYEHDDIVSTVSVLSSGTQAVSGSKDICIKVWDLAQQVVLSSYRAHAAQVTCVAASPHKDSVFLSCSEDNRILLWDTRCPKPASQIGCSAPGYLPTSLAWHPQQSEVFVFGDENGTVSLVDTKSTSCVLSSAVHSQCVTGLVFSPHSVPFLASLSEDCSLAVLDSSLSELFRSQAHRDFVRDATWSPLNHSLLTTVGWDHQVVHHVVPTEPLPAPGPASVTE
Experiment: PRMT5 Assay (PRMT5 biochemical assay)
Details: PRMT5 biochemical assay; read-out: PRMT5 IC50
reported_property: IC50

1. Nc1ncnc2c1c(CO)cn2[C@@H]1O[C@H](COc2ccc3ccc(N4CCC4)nc3c2)[C@@H](O)[C@@H]1F [I-163]    > 1000 nM
2. Nc1ncnc2c1ccn2[C@@H]1C[C@H](CCc2ccc3cncnc3c2)[C@@H](O)[C@H]1O [I-127]    < 10 nM
3. CCNc1ccc2ccc(CC[C@H]3O[C@@H](n4ccc5c(N)ncnc54)[C@H](O)[C@@H]3O)cc2n1 [I-90]    < 10 nM
4. CCNc1ccc2ccc(OC[C@H]3O[C@@H](n4cc(C5CCCC5)c5c(N)ncnc54)[C@H](O)[C@@H]3O)cc2n1 [I-8]    < 10 nM
5. Nc1ncnc2c1ccn2[C@@H]1C[C@H](CCc2ccc3cc[nH]c3c2)[C@@H](O)[C@H]1O [I-101]    100 to 1000 nM
6. CNc1ccc2ccc(OC[C@H]3O[C@@H](n4cc(C5CCN(C)CC5)c5c(N)ncnc54)[C@@H](F)[C@@H]3O)cc2n1 [I-24]    100 to 1000 nM
7. CNc1ccc2sc(CC[C@H]3O[C@@H](n4ccc5c(N)ncnc54)[C@@H](F)[C@@H]3O)cc2n1 [I-193]    10 to 100 nM
8. CNc1ccc2ccc(CC[C@H]3C[C@@H](n4ccc5c(N)ncnc54)[C@H](O)[C@@H]3O)cc2n1 [I-123]    < 10 nM
9. CNc1ccc2ccc(CC[C@H]3C[C@@H](n4cc(C5CCCC5)c5c(N)ncnc54)[C@H](O)[C@@H]3O)cc2n1 [I-55]    < 10 nM
10. CN(C)c1ccc2ccc(OC[C@H]3O[C@@H](n4ccc5c(N)ncnc54)[C@H](O)[C@@H]3O)cc2n1 [I-78]    10 to 100 nM

Ask: Which IC50 reading was recorded for the molecule Cc1cc(N)c2ccc(OC[C@H]3O[C@@H](n4cc(Br)c5c(N)ncnc54)C[C@@H]3O)cc2n1 [I-19] ?
Reply: 100 to 1000 nM

Ask: Which IC50 reading was recorded for the molecule CCCNc1ccc2ccc(CC[C@H]3C[C@@H](n4ccc5c(N)ncnc54)[C@H](O)[C@@H]3O)cc2n1 [I-120] ?
Reply: < 10 nM

Ask: Which IC50 reading was recorded for the molecule Nc1ccc2ccc(CC[C@H]3C[C@@H](n4ccc5c(N)ncnc54)[C@H](O)[C@@H]3O)cc2c1 [I-108] ?
Reply: 100 to 1000 nM

Ask: Which IC50 reading was recorded for the molecule Cc1cn([C@@H]2O[C@H](COc3ccc4ccc(N)nc4c3)[C@@H](O)[C@H]2O)c2ncnc(N)c12 [I-15] ?
Reply: 100 to 1000 nM

Ask: Which IC50 reading was recorded for the molecule Nc1ncnc2c1ccn2[C@@H]1C[C@H](CCc2ccc3[nH]c(=O)[nH]c3c2)[C@@H](O)[C@H]1O [I-93] ?
Reply: 10 to 100 nM

* * *

Target: METTL3/METTL14 (Homo sapiens)
Sequence (Q86U44 whole entry, species assumed): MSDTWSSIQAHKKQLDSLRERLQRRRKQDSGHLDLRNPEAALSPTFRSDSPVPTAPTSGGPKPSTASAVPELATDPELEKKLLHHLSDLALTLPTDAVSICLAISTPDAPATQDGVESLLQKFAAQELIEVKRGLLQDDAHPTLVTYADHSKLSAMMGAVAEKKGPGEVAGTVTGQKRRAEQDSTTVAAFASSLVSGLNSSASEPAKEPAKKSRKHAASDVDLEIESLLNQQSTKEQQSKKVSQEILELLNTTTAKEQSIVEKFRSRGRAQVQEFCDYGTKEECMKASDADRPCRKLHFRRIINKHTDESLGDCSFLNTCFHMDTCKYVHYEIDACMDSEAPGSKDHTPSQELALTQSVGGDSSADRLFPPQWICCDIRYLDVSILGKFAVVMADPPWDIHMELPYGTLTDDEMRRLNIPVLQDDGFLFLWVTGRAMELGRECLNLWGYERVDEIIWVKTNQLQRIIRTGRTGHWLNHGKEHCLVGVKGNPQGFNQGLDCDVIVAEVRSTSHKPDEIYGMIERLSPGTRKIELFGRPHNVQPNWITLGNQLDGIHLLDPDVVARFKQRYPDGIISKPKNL
Sequence (Q9HCE5 whole entry partner, species assumed): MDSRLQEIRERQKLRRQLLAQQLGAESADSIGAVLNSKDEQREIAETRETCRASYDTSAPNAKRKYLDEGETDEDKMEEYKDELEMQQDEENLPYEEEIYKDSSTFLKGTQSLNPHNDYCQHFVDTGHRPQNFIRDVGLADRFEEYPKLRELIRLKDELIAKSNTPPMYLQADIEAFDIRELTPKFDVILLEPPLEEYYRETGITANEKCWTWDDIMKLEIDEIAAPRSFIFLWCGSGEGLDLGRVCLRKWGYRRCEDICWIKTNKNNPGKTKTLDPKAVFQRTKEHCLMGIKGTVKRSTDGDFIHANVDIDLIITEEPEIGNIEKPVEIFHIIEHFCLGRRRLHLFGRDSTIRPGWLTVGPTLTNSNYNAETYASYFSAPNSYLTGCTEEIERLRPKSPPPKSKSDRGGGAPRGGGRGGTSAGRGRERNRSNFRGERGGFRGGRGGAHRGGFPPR
Assay: METTL3-14 Standard Enzyme Assay (METTL3 biochemical assay)
Conditions: METTL3 biochemical assay; read-out: METTL3 IC50
pIC50: −log10 of the molar value.
reported_property: pIC50

Worked set:
1. CNc1ccc2ccc(OC[C@H]3O[C@@H](n4cc(C5=CCN(C)CC5)c5c(N)ncnc54)[C@@H](F)[C@@H]3O)cc2n1 [I-35]    7.00 to 8.00
2. Nc1ccc2ccc(OC[C@H]3O[C@H](n4ccc5c(N)ncnc54)[C@H](O)[C@@H]3O)cc2n1 [I-79]    < 6.00
3. Nc1ncnc2c1ccn2[C@@H]1C[C@H](CCc2ccc3c(OCC4CC4)ccnc3c2)[C@@H](O)[C@H]1O [I-85]    < 6.00
4. CN(C)Cc1cn([C@@H]2O[C@H](COc3ccc4ccc(N5CCC5)nc4c3)[C@@H](O)[C@@H]2F)c2ncnc(N)c12 [I-214]    > 8.00

Ask: Given the entry CNc1ccc2ccc(OC[C@H]3O[C@@H](n4cc(C)c5c(N)ncnc54)[C@H](O)[C@@H]3O)cc2n1 [I-22] , what pIC50 was observed with METTL3/METTL14 (Homo sapiens)?
Reply: < 6.00

Ask: Given the entry Nc1ccnc2cc(OC[C@H]3O[C@@H](n4cc(Br)c5c(N)ncnc54)[C@@H](F)[C@@H]3O)ccc12 [I-13] , what pIC50 was observed with METTL3/METTL14 (Homo sapiens)?
Reply: 6.00 to 7.00

Ask: Given the entry CCNc1ccc2ccc(OC[C@H]3O[C@@H](n4cc(C5CCCC5)c5c(N)ncnc54)[C@H](O)[C@@H]3O)cc2n1 [I-8] , what pIC50 was observed with METTL3/METTL14 (Homo sapiens)?
Reply: > 8.00
